# assay-target: human NKp30 (human) (UniProt O14931)
# Sequence (O14931 19-135 limits assumed): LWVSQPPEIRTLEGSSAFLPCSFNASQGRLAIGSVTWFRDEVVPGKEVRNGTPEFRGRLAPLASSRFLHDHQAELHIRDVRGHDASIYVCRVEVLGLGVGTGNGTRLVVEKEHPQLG
# experimental-protocol: BLI, immunoligand on anti-hFc tip

# binder, kon
measured = [
    ("ΔB7-H6_S2#11-SEED-PGLALA (bispecific antibody, part only; not given: SEED Fc chains and hu225 Fab, part only) chain, part: DLKVEMMAGGTQITPLNDNVTIFCNIFYSQPLNITTMGITWFWKSLTFDKEVKVFEFWQDHQEAFRPGAIVSPWRLKSGDASLRLPGIQLEEAGEYRCEVVVTPLKAQGTVQLEVVASPAS", "491000 M⁻¹ s⁻¹"),
    ("ΔB7-H6_S3#4-SEED-PGLALA (bispecific antibody, part only; not given: SEED Fc chains and hu225 Fab, part only) chain, part: DLKVEMMAGGTQITPLNDNVTIFCNIFYSQPLNITIMGITWFWKSLTFDKEVKVFEFWGDHQEAFRPGAIVSPWRLKSGDASLRLPGIQLEEAGEYRCEVVVTPLKAQGTVQLEVVASPAS", "621000 M⁻¹ s⁻¹"),
    ("ΔB7-H6_S2#2-SEED-PGLALA (bispecific antibody, part only; not given: SEED Fc chains and hu225 Fab, part only) chain, part: DLKVEMMAGGTQITPLNDNVTIFCNIFYSQPLNITSMGITWFWKSLTFDKEVKVFEFWDDHQEAFRPGAIVSPWRLKSGDASLRLPGIQLEEAGEYRCEVVVTPYKAQGTVQLEVVASPAS", "340000 M⁻¹ s⁻¹"),
    ("ΔB7-H6_S3#5-SEED-PGLALA (bispecific antibody, part only; not given: SEED Fc chains and hu225 Fab, part only) chain, part: DLKVEMMAGGTQITPLNDNVTIFCNIFYSQPLNITVMGITWFWKSLTFDKEVKVFEFWGDHQEAFRPGAIVSPWRLKSGDASLRLPGIQLEEAGEYRCEVVVTPYKAQGTVQLEVVASPAS", "799000 M⁻¹ s⁻¹"),
]
